# target under test: hrPREP (Homo sapiens, UniProt P48147)
# Sequence (P48147 whole entry): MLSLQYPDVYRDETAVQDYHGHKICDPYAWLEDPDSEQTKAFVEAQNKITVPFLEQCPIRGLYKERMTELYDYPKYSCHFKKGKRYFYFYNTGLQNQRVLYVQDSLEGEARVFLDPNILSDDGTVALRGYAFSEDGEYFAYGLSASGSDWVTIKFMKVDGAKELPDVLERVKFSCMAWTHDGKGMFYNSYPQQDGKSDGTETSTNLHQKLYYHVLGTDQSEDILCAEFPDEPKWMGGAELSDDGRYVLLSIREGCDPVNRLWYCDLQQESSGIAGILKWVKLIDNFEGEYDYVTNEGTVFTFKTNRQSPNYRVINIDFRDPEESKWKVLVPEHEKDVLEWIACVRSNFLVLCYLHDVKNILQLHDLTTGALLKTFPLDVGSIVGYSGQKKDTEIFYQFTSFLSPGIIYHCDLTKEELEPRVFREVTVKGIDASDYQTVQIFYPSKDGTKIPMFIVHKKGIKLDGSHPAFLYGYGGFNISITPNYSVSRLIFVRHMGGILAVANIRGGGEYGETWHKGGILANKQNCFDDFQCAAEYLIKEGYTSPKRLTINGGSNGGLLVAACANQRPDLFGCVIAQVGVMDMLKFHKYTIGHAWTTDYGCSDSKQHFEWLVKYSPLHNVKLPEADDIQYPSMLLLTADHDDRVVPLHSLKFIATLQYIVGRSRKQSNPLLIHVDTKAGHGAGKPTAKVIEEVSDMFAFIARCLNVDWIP
pIC50: −log10 of the molar value.
endpoint: pIC50

Ask: # return pIC50 of N#C[C@@H]1CCCN1C(=O)CNC(=O)c1ccnc2ccc(Br)cc12 [compound 5] (system: hrPREP (Homo sapiens, UniProt P48147))
Reply: < 4.00

----------
# target under test: hrDPP IV (Homo sapiens)
# Sequence (P27487 whole entry): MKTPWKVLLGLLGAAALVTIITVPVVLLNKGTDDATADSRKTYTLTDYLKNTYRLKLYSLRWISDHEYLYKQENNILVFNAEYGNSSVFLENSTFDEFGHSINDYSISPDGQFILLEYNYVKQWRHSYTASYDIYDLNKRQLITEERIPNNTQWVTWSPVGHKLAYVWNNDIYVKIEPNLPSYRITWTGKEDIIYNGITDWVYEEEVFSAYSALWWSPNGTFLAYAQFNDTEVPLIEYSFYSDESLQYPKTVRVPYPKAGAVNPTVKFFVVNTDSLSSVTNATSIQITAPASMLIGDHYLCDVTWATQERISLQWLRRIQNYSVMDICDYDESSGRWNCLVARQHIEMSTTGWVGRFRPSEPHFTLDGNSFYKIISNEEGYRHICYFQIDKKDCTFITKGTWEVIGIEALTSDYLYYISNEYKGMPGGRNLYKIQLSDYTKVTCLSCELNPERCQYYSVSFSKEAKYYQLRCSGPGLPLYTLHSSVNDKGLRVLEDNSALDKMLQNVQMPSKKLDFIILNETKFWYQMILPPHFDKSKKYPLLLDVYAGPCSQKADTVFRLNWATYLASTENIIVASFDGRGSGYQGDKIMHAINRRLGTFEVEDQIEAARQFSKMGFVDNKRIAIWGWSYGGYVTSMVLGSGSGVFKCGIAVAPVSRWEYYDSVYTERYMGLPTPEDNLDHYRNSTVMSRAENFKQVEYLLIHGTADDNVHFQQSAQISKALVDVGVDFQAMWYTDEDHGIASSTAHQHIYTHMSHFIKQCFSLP
endpoint: IC50

Ask: Retrieve IC50 measured for `N#C[C@@H]1CCCN1C(=O)CNC(=O)c1ccnc2ccc(Br)cc12` and print it.
Reply: > 100 µM
